# TEST SYSTEM: UniProtKB Q9UBN4
# TEST DETAILS: Fluorescence cell-based assay, TRPC4
# MEASUREMENT CONDITIONS: membrane potential dye, duplicate
OUTCOME MEASURE: IC50

[ask] Given COc1cc(/C=C/C(=O)N2CCC=CC2=O)cc(OC)c1OC [Compound 1, piperlongumine] , state its recorded IC50.
[reply] > 100 µM

###

# TEST SYSTEM: TRPC5 (Homo sapiens, UniProt Q9UL62)
# TEST DETAILS: Fluorescence cell-based assay, TRPC5
# MEASUREMENT CONDITIONS: membrane potential dye, duplicate
OUTCOME MEASURE: IC50

[ask] Given COc1cc(/C=C/C(=O)N2CCC=CC2=O)cc(OC)c1OC , state its recorded IC50.
[reply] > 100 µM

###

# TEST SYSTEM: TRPM4 (Homo sapiens)
# TEST DETAILS: Fluorescence cell-based assay, TRPM4
# MEASUREMENT CONDITIONS: membrane potential dye, duplicate
OUTCOME MEASURE: IC50

[ask] Given COc1cc(/C=C/C(=O)N2CCC=CC2=O)cc(OC)c1OC [Compound 1, piperlongumine] , state its recorded IC50.
[reply] > 100 µM

###

# TEST SYSTEM: TRPV3 (Homo sapiens)
# Sequence (Q8NET8 whole entry): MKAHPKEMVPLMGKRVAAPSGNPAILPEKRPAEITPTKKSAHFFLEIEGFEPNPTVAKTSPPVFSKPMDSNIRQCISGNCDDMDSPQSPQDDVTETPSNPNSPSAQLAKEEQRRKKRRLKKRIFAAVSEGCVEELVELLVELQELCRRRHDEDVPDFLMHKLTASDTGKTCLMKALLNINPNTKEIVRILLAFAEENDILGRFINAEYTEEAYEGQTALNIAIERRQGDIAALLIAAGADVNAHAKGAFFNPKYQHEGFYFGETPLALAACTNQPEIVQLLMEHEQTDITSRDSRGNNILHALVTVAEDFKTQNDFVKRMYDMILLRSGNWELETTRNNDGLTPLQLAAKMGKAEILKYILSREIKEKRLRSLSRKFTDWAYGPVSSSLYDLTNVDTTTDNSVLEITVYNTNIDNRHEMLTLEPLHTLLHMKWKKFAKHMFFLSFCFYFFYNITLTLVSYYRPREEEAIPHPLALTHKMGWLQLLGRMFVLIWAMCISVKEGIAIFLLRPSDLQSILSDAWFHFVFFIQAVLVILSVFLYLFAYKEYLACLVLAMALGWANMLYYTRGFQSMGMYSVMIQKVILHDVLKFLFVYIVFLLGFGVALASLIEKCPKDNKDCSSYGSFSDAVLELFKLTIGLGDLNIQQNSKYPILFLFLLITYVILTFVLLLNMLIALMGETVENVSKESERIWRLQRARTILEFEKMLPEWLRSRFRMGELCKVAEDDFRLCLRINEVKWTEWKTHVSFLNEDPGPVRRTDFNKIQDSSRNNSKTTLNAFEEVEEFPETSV
# TEST DETAILS: Fluorescence cell-based assay, TRPV3
# MEASUREMENT CONDITIONS: calcium 5 dye, duplicate
OUTCOME MEASURE: IC50

[ask] Given COc1cc(/C=C/C(=O)N2CCC=CC2=O)cc(OC)c1OC , state its recorded IC50.
[reply] > 100 µM

###

# TEST SYSTEM: TRPV2 (Homo sapiens, UniProt Q9Y5S1)
# Sequence (Q9Y5S1 whole entry): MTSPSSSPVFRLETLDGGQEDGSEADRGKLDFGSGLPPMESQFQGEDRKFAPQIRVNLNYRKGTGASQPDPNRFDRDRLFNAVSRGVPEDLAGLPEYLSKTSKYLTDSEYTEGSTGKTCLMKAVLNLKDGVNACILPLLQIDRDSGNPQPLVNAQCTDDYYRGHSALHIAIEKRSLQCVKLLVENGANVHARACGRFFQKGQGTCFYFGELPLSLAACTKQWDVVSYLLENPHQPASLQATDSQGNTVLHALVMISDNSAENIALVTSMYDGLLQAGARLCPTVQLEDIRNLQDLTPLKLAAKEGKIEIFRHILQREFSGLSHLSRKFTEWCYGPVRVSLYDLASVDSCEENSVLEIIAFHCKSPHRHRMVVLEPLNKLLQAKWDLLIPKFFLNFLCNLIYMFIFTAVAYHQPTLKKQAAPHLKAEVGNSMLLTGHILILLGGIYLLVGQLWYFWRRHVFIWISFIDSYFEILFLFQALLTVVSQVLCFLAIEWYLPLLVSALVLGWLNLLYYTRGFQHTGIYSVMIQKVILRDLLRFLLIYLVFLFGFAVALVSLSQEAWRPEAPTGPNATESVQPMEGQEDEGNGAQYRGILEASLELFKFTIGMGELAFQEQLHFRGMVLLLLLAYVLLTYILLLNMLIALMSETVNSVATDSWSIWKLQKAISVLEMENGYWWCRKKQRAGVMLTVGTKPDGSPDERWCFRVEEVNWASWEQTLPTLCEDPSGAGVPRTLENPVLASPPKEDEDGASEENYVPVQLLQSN
# TEST DETAILS: Manual patch-clamp assay, hTRPV2 stable HEK-293 cells
# MEASUREMENT CONDITIONS: n=3; read-out: EC50 (cannabidiol), TRPV2
OUTCOME MEASURE: pEC50
In textbook form, pEC50 equals minus log to base ten of the concentration in mol/L.

[ask] Given C=C(C)[C@@H]1CCC(C)=C[C@H]1c1c(O)cc(CCCCC)cc1O [cannabidiol, reference compound] , state its recorded pEC50.
[reply] 5.42

###

# TEST SYSTEM: TRPV1 (Homo sapiens)
# TEST DETAILS: Fluorescence cell-based assay, TRPV1
# MEASUREMENT CONDITIONS: calcium 5 dye, duplicate
OUTCOME MEASURE: IC50

[ask] Given COc1cc(/C=C/C(=O)N2CCC=CC2=O)cc(OC)c1OC [Compound 1, piperlongumine] , state its recorded IC50.
[reply] > 100 µM

###

# TEST SYSTEM: UniProt:Q9Y210
# Sequence (Q9Y210 whole entry): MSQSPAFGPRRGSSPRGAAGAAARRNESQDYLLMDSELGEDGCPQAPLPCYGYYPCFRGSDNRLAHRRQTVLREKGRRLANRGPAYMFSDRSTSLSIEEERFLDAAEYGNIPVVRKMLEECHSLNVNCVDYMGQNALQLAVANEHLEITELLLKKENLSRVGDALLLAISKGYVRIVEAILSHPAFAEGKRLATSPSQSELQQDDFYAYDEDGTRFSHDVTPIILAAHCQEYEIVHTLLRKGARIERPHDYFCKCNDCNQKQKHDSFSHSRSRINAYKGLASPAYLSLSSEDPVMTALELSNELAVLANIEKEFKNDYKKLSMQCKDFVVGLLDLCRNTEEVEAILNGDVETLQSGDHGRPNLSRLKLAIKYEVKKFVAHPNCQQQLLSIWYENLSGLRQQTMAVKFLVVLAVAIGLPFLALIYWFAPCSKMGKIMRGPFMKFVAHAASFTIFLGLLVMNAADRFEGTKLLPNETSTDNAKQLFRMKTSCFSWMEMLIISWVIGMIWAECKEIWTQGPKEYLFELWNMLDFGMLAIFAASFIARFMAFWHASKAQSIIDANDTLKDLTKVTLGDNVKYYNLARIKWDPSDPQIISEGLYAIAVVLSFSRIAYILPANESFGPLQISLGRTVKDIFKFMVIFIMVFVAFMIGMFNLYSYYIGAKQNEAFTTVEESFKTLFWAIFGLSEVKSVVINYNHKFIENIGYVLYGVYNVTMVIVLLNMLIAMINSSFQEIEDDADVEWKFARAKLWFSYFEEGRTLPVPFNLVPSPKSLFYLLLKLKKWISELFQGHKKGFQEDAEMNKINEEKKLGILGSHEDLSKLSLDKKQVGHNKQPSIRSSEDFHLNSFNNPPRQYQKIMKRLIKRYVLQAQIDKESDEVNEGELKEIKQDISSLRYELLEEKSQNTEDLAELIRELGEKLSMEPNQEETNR
# TEST DETAILS: Fluorescence cell-based assay, TRPC6
# MEASUREMENT CONDITIONS: membrane potential dye, duplicate
# Protocol: The assays were performed at SB Discovery (Glasgow, UK) on a fee-for-service basis. Human TRP cells were trypsinised, counted and seeded in black, clear-bottomed 96 well plates at a density of 50,000 cells per well in 100 μL volume and incubated overnight. Next day, the cells were loaded with calcium 5 dye or membrane potential dye. […] The plates were then placed in the flexstation and fluorescence monitored every 1.52 seconds. […]
OUTCOME MEASURE: IC50

[ask] Given COc1cc(/C=C/C(=O)N2CCC=CC2=O)cc(OC)c1OC , state its recorded IC50.
[reply] > 100 µM

###

# TEST SYSTEM: TRPM8 (Homo sapiens, UniProt Q7Z2W7)
# TEST DETAILS: Fluorescence cell-based assay, TRPM8
# MEASUREMENT CONDITIONS: calcium 5 dye, duplicate
OUTCOME MEASURE: IC50

[ask] Given COc1cc(/C=C/C(=O)N2CCC=CC2=O)cc(OC)c1OC , state its recorded IC50.
[reply] > 100 µM

###

Catalogue of IC50 values
# TEST SYSTEM: TRPA1 (Homo sapiens, UniProt O75762)
# Sequence (O75762 whole entry): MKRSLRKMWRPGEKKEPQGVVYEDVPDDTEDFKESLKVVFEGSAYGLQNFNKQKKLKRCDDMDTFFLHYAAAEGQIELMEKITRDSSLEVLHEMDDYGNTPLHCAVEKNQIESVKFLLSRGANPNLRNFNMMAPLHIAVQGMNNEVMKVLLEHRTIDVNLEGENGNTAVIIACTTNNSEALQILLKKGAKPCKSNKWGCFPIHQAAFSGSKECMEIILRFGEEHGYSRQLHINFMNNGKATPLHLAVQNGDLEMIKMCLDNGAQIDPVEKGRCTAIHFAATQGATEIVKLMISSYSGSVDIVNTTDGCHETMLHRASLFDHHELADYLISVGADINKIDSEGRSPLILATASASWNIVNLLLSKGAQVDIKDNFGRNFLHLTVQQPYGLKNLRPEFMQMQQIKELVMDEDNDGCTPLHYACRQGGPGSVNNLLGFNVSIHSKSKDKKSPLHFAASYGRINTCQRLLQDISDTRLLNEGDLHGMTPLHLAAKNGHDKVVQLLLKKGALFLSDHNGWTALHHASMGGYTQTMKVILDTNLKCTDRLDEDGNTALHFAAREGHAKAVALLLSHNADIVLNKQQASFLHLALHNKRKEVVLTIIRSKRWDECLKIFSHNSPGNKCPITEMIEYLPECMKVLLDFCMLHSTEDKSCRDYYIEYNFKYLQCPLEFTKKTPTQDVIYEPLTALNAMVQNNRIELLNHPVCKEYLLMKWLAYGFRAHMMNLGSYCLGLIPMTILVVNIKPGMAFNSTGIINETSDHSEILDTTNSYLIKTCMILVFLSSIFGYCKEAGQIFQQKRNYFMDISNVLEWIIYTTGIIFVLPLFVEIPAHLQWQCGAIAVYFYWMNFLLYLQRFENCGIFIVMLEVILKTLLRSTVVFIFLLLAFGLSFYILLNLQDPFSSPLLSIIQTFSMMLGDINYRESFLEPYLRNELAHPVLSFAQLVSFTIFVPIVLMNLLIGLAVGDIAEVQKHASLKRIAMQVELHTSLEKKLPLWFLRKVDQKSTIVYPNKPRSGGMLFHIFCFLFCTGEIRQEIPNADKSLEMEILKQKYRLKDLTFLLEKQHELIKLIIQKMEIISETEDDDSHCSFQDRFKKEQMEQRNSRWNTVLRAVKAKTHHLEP
# TEST DETAILS: Fluorescence cell-based assay, TRPA1
# MEASUREMENT CONDITIONS: calcium 5 dye, spread in log units, duplicate
Please give a number only; it is taken to be in µM.

COMPOUND	TEST SYSTEM	IC50 (µM)
Cl.Cl.Cl.Cl.Cl.Cl.N.N.N.N.N.N.N.N.N.N.N.N.N.N.[O-2].[O-2].[Ru+3].[Ru+3].[Ru+4] [ruthenium red, reference compound]	TRPA1 (Homo sapiens, UniProt O75762)	2.3

We next turn to a different compound, shown below.
[ask] Given COc1cc(/C=C/C(=O)N2CCC=CC2=O)cc(OC)c1OC , state its recorded IC50.
[reply] 39

###

# TEST SYSTEM: TRPV5 (Homo sapiens, UniProt Q9NQA5)
# TEST DETAILS: Fluorescence cell-based assay, TRPV5
# MEASUREMENT CONDITIONS: calcium 5 dye, duplicate
OUTCOME MEASURE: IC50

[ask] Given COc1cc(/C=C/C(=O)N2CCC=CC2=O)cc(OC)c1OC , state its recorded IC50.
[reply] > 100 µM

###

# TEST SYSTEM: TRPV4 (Homo sapiens)
# TEST DETAILS: Fluorescence cell-based assay, TRPV4
# MEASUREMENT CONDITIONS: calcium 5 dye, duplicate
OUTCOME MEASURE: IC50

[ask] Given COc1cc(/C=C/C(=O)N2CCC=CC2=O)cc(OC)c1OC , state its recorded IC50.
[reply] > 100 µM

###

# TEST SYSTEM: TRPC1 (Homo sapiens, UniProt P48995)
# Sequence (P48995 whole entry): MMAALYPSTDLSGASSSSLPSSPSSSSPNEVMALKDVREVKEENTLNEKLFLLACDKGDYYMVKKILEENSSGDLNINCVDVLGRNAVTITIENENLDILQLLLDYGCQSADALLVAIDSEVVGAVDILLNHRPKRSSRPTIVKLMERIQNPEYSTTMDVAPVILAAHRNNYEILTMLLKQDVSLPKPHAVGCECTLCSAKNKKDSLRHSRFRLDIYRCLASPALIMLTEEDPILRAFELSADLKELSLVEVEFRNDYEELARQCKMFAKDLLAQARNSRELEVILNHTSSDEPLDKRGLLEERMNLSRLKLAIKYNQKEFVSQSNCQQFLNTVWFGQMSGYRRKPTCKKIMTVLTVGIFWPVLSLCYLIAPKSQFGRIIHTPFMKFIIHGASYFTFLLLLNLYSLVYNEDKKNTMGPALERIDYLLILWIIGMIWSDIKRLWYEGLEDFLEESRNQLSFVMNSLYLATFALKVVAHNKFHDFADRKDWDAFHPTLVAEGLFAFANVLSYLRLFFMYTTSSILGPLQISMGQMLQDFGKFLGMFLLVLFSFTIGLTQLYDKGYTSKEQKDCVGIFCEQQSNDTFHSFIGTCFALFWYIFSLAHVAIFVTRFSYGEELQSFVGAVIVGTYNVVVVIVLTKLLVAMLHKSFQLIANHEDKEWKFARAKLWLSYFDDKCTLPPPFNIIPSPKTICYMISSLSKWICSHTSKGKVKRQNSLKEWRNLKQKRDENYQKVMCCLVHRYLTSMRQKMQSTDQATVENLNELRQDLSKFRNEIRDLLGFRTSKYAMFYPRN
# TEST DETAILS: Fluorescence cell-based assay, TRPC1
# MEASUREMENT CONDITIONS: membrane potential dye, duplicate
OUTCOME MEASURE: IC50

[ask] Given COc1cc(/C=C/C(=O)N2CCC=CC2=O)cc(OC)c1OC , state its recorded IC50.
[reply] > 100 µM
